tested on: MOLT-4 leukemia; assay: NCI-60 one-dose screen, 48 h (100 = growth as untreated, 0 = no growth, -100 = all killed); conditions: 10 µM unless noted
About 83,000 compounds went through this panel and 20% of them were active in at least one assay; those are over-represented in the sample as a whole.
Rule: measured growth below 20% gets fulfilled; anything equal to or greater than 20% gets not fulfilled.

Example results:
CCNC(=O)N1CCc2cc(OC)c(OCCc3ccc(OC)nc3)cc2C1c1ccc(OC)cc1C (centres undefined)    not fulfilled
CCO/C=N/C1=C(C#N)C(c2ccc(F)cc2)c2sc3c(C)cccc3c2O1 (centres undefined)    not fulfilled

Qu. I'd appreciate it if you could check whether `CCN(CC)c1ccc(NC2=C(Cl)C(=O)c3nc(C)ccc3C2=O)cc1` has growth smaller than 20%.
Ans. fulfilled

Qu. Find out if reported growth for CCCn1cnc2c(c1=N)C(c1ccc(Cl)cc1)c1sc3c(CC)cccc3c1O2 (centres undefined) is less than 20%
Ans. fulfilled

----------
Measured growth, listed per entry.
system: SNB-19 CNS; assay: NCI-60 one-dose screen, 48 h (100 = growth as untreated, 0 = no growth, -100 = all killed); conditions: 10 µM unless noted
About 83,000 compounds went through this panel and 20% of them were active in at least one assay; those are over-represented in the sample as a whole.
Entry rule: numbers only, all in %.

The examples below pair each entry with its known result.
O=C(/C=C/c1ccc(F)cc1)c1ccc(O)cc1    91.4
COc1cc(/C=C/C(=O)c2ccc(NC(=O)CSc3nnc(-c4ccc(-c5nc6ccc(Cl)cc6[nH]5)cc4)o3)cc2)cc(OC)c1OC    89

Now examine the next entry.
Short answer for Nc1nc(N)c2c(n1)NC(c1ccc(Cl)cc1)CC(c1ccc(Nc3nc(NCCO)nc(N4CCOCC4)n3)cc1)=N2 (stereo not drawn) : growth was 87.4

----------
tested on: CCRF-CEM leukemia; test: NCI-60 one-dose screen, 48 h (100 = growth as untreated, 0 = no growth, -100 = all killed); details: 10 µM unless noted
This is part of a sample that, as a whole, favours compounds with a hit. Of some 83,000 tested, about 20% had one in any assay.
Entries annotated with measured growth
Hi! Could you send only the number? It should be in %, unit omitted.

Take a look at these entries with their results.
Fc1ccc(-c2cc3nc(C(Cl)Cl)nc(-c4ccc(F)cc4)n3n2)cc1    33.1
Oc1ccc(CSc2nnc(-c3ccc(Cl)cc3)n2-c2ccccc2)c2cccnc12    20.8
COc1ccccc1-n1cc(C#N)c(N)c1C(=O)c1ccc(C)cc1    85.6

Just so you know, measured growth for `NC(N)=Nc1ccc(Oc2cccc(NC(N)=Nc3ccc(I)cc3F)c2)cc1` came out at 77.3

----------
tested on: UO-31 renal; experiment: NCI-60 one-dose screen, 48 h (100 = growth as untreated, 0 = no growth, -100 = all killed); conditions: 10 µM unless noted
About 83,000 compounds went through this panel and 20% of them were active in at least one assay; those are over-represented in the sample as a whole.
parameter: growth (%)
Express the result in % but write the number alone.

Example results:
CNC(=O)c1cc(-n2ccc3cc(NC(=O)Nc4ccc(N5CCOCC5)c(C(F)(F)F)c4)ccc32)ccn1    35.2
COc1ccc(-n2c(SCc3nnc(NC(=O)c4ccc(Br)cc4)s3)nc3cc(OC)c(OC)cc3c2=O)cc1    84.2
Nn1c(N/N=C/c2nc3ccccc3s2)n[nH]c1=S    58

Per the records, this compound ( CCNC(=O)N1CCc2cc(OC)c(OCCc3ccc(OC)c(N)c3)cc2C1c1cc(C)c(C)cc1C (stereo unspecified) ) has growth equal to 38.4

Measured growth of `CC(=O)c1ccc(Nc2nc(SCC(C)C)nc(-c3ccccc3)c2C#N)cc1` : 111

Note to self: growth recorded for `NS(=O)(=O)c1ccc(Nc2nc(SCC(=O)c3ccc(Cl)cc3)nc3c2CCCC3)cc1` was 38
